Provide the recorded fold change (FC) for the entries that follow.
Target: Adenosine receptor A3 (Homo sapiens) (UniProt P0DMS8)
Sequence (whole entry): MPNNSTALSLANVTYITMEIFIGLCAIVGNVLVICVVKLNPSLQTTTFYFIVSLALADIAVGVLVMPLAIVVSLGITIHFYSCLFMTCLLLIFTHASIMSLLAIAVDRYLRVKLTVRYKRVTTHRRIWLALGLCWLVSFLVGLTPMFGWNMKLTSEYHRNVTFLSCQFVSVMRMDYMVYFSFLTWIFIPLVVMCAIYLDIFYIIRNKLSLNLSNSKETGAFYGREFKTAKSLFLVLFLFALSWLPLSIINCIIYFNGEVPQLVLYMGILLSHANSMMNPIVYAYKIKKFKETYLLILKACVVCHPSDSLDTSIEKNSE
Assay: Positive allosteric modulation of human A3 adenosine receptor transfected in HEK293 cell membranes assessed as potentiation of 5-(2-chloro-6-((3-iodobenzyl)amino)-9H-purin-9-yl)-3,4-dihydroxy-N-methyltetrahydrofuran-2-carboxamide induced [35S]GTP-gammaS binding by measuring fold increase in agonist …
Conditions: Membrane, filed as positive allosteric modulator, dose 1.0 µM, time 3.0 hrs
Respond with the number and no other words.

stdin: Please report the recorded fold change (FC) for `CCCC(CCC)c1nc2c(Nc3ccc(C#CCCCCCCCCN(C)C)cc3)nc3ccccc3c2[nH]1` .
stdout: 4

stdin: Please report the recorded fold change (FC) for `CCCC(CCC)c1nc2c(Nc3ccc(C#CCCCCCCCCCN4CCCC4)cc3)nc3ccccc3c2[nH]1` .
stdout: 4

stdin: Please report the recorded fold change (FC) for `CCCC(CCC)c1nc2c([nH]1)c(Nc1ccc(C#CCCCCCCCCCCN)cc1)nc1ccccc12` .
stdout: 2.5

stdin: Please report the recorded fold change (FC) for `CCCC(CCC)c1nc2c(Nc3ccc(C#CCCCCCCCN)cc3)nc3ccccc3c2[nH]1` .
stdout: 7.4

stdin: Please report the recorded fold change (FC) for `CCCC(CCC)c1nc2c(Nc3ccc(C#CCCCCCCCCCN4CCCCC4)cc3)nc3ccccc3c2[nH]1` .
stdout: 4

stdin: Please report the recorded fold change (FC) for `CCCC(CCC)c1nc2c(Nc3ccc(C#CCCCCCCCCN=C(N)N)cc3)nc3ccccc3c2[nH]1` .
stdout: 9.5

====

Target: Adenosine receptor A3 (Homo sapiens)
Sequence (whole entry): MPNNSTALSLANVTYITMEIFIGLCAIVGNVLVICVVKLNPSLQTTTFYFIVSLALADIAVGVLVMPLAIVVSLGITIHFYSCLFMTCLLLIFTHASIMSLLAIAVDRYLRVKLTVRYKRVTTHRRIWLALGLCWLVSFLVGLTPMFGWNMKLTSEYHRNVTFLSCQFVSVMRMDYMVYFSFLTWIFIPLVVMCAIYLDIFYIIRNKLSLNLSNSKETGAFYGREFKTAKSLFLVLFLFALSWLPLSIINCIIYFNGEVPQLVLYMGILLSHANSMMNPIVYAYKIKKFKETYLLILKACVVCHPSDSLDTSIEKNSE
Assay: Positive allosteric modulation of human A3 adenosine receptor transfected in HEK293 cell membranes assessed as potentiation of 5-(2-chloro-6-((3-iodobenzyl)amino)-9H-purin-9-yl)-3,4-dihydroxy-N-methyltetrahydrofuran-2-carboxamide induced [35S]GTP-gammaS binding by measuring fold increase in agonist …
Details: Membrane, filed as positive allosteric modulator, dose 1.0 µM, time 3.0 hrs
Provide the recorded fold change (FC) for the entries that follow.

stdin: Please report the recorded fold change (FC) for `CCCC(CCC)c1nc2c(Nc3ccc(/C=C/CCCCCCCCN)cc3)nc3ccccc3c2[nH]1` .
stdout: 2.5

stdin: Please report the recorded fold change (FC) for `CCCC(CCC)c1nc2c(Nc3ccc(C#CCCCCCCCCN)cc3)nc3ccccc3c2[nH]1` .
stdout: 4

stdin: Please report the recorded fold change (FC) for `CCCC(CCC)c1nc2c(Nc3ccc(C#CCCCCCCCCCN)cc3)nc3ccccc3c2[nH]1` .
stdout: 4

stdin: Please report the recorded fold change (FC) for `CCCC(CCC)c1nc2c(Nc3ccc(I)cc3)nc3ccccc3c2n1Cc1ccccc1` .
stdout: 2.5

stdin: Please report the recorded fold change (FC) for `CCCC(CCC)c1nc2c(Nc3ccc(C#CCCCCCCCCNCCCCN)cc3)nc3ccccc3c2[nH]1` .
stdout: 12
